The origin of these recorded values is paper PMC6515238.

Quick reference: pIC50 of the listed items.
target: UniProtKB P00690
Sequence (P00690 16-511): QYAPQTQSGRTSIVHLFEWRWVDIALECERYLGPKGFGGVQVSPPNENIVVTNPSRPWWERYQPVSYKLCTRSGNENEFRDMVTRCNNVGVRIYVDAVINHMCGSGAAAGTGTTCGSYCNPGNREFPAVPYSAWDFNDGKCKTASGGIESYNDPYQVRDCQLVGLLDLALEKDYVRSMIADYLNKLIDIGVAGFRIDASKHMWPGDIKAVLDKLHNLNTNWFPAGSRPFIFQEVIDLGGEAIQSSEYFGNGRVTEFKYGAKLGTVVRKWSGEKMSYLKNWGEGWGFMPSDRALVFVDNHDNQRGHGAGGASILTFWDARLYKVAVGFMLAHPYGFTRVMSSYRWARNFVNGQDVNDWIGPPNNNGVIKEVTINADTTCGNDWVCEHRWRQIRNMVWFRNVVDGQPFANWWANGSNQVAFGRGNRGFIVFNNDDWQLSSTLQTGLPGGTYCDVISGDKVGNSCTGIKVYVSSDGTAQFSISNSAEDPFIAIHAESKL
Entry type: numeric. Quantity: pIC50, the -log10 of concentration in molar units.

Illustrative cases are given below, each with its answer.
QUERY_SMILES: Oc1ccc(/N=N/c2ccccc2Cl)cc1/C=N/N=C/c1cc(/N=N/c2ccccc2Cl)ccc1O
METRIC_NAME: pIC50
OBSERVED: 5.02
//
QUERY_SMILES: O=S(=O)([O-])c1ccc(/N=N/c2ccc(O)c(/C=N/N=C/c3cc(/N=N/c4ccc(S(=O)(=O)[O-])cc4)ccc3O)c2)cc1.[Na+].[Na+]
METRIC_NAME: pIC50
OBSERVED: 5.37
//
QUERY_SMILES: O=[N+]([O-])c1ccc(/N=N/c2ccc(O)c(/C=N/N=C/c3cc(/N=N/c4ccc([N+](=O)[O-])cc4)ccc3O)c2)cc1
METRIC_NAME: pIC50
OBSERVED: 6.36

# context switch: different compound, same pIC50
Note to self: pIC50 of O=[N+]([O-])c1ccc(/N=N/c2ccc(O)c(/C=N/N=C/c3cc(/N=N/c4ccc([N+](=O)[O-])cc4[N+](=O)[O-])ccc3O)c2)c([N+](=O)[O-])c1 with UniProtKB P00690 was 5.07
